- MEASUREMENT_DESCRIPTION: Tmax in rat at 10 mg/kg, po
- Assay type: ADME, organism-based
- Set-up: dose 10 mg/kg, route oral
- TEST_PARAMETERS: in vivo
MEASURED_ATTRIBUTE: Tmax (h)

1. Cc1ccccc1[C@H](OC[C@H](O)CNC(C)(C)Cc1ccc2ccccc2c1)C1CC1 :: 1

###

- TARGET_DESC: Extracellular calcium-sensing receptor (Homo sapiens)
- Sequence (P41180 whole entry): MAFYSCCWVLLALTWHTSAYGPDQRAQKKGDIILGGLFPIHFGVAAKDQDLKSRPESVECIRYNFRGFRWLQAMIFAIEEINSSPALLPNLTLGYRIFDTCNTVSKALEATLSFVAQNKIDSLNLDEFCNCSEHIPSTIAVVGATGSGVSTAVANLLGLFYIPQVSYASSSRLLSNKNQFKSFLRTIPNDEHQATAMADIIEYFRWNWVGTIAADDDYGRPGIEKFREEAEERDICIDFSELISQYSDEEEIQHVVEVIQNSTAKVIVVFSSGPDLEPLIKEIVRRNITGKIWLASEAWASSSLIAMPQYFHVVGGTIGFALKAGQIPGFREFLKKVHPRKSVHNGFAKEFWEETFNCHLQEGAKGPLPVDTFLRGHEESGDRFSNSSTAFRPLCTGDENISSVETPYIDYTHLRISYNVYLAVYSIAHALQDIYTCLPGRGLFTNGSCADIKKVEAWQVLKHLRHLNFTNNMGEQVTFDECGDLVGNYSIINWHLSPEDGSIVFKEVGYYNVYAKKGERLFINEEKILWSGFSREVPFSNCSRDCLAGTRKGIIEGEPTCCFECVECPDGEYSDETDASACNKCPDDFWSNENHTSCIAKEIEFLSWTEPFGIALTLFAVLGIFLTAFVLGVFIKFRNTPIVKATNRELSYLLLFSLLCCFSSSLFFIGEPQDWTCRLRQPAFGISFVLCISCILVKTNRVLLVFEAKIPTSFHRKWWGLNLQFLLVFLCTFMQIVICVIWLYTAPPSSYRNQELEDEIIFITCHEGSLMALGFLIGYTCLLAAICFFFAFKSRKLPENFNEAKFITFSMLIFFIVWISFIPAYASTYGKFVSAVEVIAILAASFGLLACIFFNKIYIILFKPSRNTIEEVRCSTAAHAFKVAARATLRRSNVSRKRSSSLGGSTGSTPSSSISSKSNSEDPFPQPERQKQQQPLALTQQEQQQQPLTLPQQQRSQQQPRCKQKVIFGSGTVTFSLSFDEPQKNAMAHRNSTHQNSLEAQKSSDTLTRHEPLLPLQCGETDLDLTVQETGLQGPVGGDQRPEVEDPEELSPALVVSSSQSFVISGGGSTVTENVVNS
- MEASUREMENT_DESCRIPTION: Antagonist activity at human CaSR expressed in rat PC12 cells transfected with zif promoter/luciferase by reporter gene assay
pIC50: −log10 of the molar value.
MEASURED_ATTRIBUTE: pIC50

1) C=CC(OC[C@H](O)CNC(C)(C)Cc1ccc2ccccc2c1)c1ccccc1 (some centres undefined) :: 6.68
2) Cc1ccccc1C(C)OC[C@H](O)CNC(C)(C)Cc1ccc2ccccc2c1 (some centres undefined) :: 6.70
3) CCC(OC[C@H](O)CNC(C)(C)Cc1ccc2ccccc2c1)c1ccccc1 (some centres undefined) :: 7.04
4) Cc1cccc(C(C)OC[C@H](O)CNC(C)(C)Cc2ccc3ccccc3c2)c1 (some centres undefined) :: 6.77
5) CC(OC[C@H](O)CNC(C)(C)Cc1ccc2ccccc2c1)c1cccc2ccccc12 (some centres undefined) :: 6.44
6) CC(OC[C@H](O)CNC(C)(C)Cc1ccc2ccccc2c1)c1ccccc1C#N (some centres undefined) :: 6.80
7) CC(CCOC[C@H](O)CNC(C)(C)Cc1ccc2ccccc2c1)c1ccccc1 (some centres undefined) :: 6.52
8) CC(C)(Cc1ccc2ccccc2c1)NC[C@@H](O)COC(C)(C)c1ccccc1 :: 5.65
9) CCCCC(OC[C@H](O)CNC(C)(C)Cc1ccc2ccccc2c1)c1ccccc1 (some centres undefined) :: 6.77
10) Cc1ccccc1[C@@H](OC[C@@H](O)CNC(C)(C)Cc1ccc2ccccc2c1)C1CC1 :: 6.12
11) Cc1ccccc1C(OC[C@H](O)CNC(C)(C)Cc1ccc2ccccc2c1)C1CC1 (some centres undefined) :: 7.43
12) Cc1ccccc1[C@H](OC[C@H](O)CNC(C)(C)Cc1ccc2ccccc2c1)C1CC1 :: 7.64
13) CC(C)(Cc1ccc2ccccc2c1)NC[C@@H](O)COC(c1ccccc1)c1ccccc1 :: 6.14
14) CC(C)(Cc1ccc2ccccc2c1)NC[C@@H](O)COC(c1ccccc1)C1CCCCC1 (some centres undefined) :: 6.21
15) CC(OC[C@H](O)CNC(C)(C)Cc1ccc2ccccc2c1)c1ccccc1 (some centres undefined) :: 6.66
16) Cc1ccccc1[C@H](OC[C@@H](O)CNC(C)(C)Cc1ccc2ccccc2c1)C1CC1 :: 6.51
17) CC(Cc1ccccc1)OC[C@H](O)CNC(C)(C)Cc1ccc2ccccc2c1 (some centres undefined) :: 6.36
18) COc1ccccc1C(C)OC[C@H](O)CNC(C)(C)Cc1ccc2ccccc2c1 (some centres undefined) :: 6.92
19) CC(OC[C@H](O)CNC(C)(C)Cc1ccc2ccccc2c1)c1ccccn1 (some centres undefined) :: 6.38
20) Cc1ccccc1[C@@H](OC[C@H](O)CNC(C)(C)Cc1ccc2ccccc2c1)C1CC1 :: 7.08
21) Cc1ccc(C(C)OC[C@H](O)CNC(C)(C)Cc2ccc3ccccc3c2)cc1 (some centres undefined) :: 6.85
22) CC(C)C(OC[C@H](O)CNC(C)(C)Cc1ccc2ccccc2c1)c1ccccc1 (some centres undefined) :: 6.70
23) CC(OC[C@H](O)CNC(C)(C)Cc1ccc2ccccc2c1)c1ccc2ccccc2c1 (some centres undefined) :: 6.26
24) CC(COC[C@H](O)CNC(C)(C)Cc1ccc2ccccc2c1)c1ccccc1 (some centres undefined) :: 6.09
25) CC(C)(Cc1ccc2ccccc2c1)NC[C@@H](O)COC(c1ccccc1)C(C)(C)C (some centres undefined) :: 6.24
26) CCCC(OC[C@H](O)CNC(C)(C)Cc1ccc2ccccc2c1)c1ccccc1 (some centres undefined) :: 6.82
27) CC(C)(Cc1ccc2ccccc2c1)NC[C@@H](O)COC(c1ccccc1)C1CCC1 (some centres undefined) :: 7.13
28) CC(OC[C@H](O)CNC(C)(C)Cc1ccc2ccccc2c1)c1cccc(Cl)c1 (some centres undefined) :: 6.66
29) CC(C)(Cc1ccc2ccccc2c1)NC[C@@H](O)COc1cccc(Cl)c1C#N :: 7.59
30) CC(C)(Cc1ccc2ccccc2c1)NC[C@@H](O)COC(c1ccccc1)C1CCCC1 (some centres undefined) :: 6.70
31) CC(OC[C@H](O)CNC(C)(C)Cc1ccc2ccccc2c1)c1ccccc1Cl (some centres undefined) :: 6.85
32) CC(OC[C@H](O)CNC(C)(C)Cc1ccc2ccccc2c1)c1ccccc1[N+](=O)[O-] (some centres undefined) :: 6.27
33) CC(C)(Cc1ccc2ccccc2c1)NC[C@@H](O)COC(c1ccccc1)C1CC1 (some centres undefined) :: 7.15

Entry source: ChEMBL document CHEMBL1155547
